These measurements were taken from ChEMBL document CHEMBL2040782.

# SYSTEM_UNDER_TEST: UniProt P04798
# Sequence (P04798 whole entry): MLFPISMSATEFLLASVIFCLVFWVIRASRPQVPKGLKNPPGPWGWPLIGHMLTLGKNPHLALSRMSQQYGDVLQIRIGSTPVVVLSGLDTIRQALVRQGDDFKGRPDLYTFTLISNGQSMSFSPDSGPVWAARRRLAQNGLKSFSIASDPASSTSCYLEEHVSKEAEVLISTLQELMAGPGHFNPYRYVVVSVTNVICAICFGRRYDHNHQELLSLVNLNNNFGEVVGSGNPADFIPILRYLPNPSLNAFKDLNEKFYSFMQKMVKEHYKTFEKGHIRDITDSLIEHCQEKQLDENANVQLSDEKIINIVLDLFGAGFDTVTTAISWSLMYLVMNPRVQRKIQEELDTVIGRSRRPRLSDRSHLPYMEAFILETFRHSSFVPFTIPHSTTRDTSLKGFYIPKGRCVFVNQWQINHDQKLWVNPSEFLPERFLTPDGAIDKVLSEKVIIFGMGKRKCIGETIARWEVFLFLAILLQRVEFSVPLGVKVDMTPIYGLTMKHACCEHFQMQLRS
# ASSAY_METHOD_TEXT: Inhibition of CYP1A1 ( at 100 uM)
# Assay type: ADME
OBSERVABLE: inhibition at 100 µM (%)
Answers are plain numbers, in %.

(Q) Any idea what inhibition at 100 µM was measured for NC(=O)C[S+]([O-])Cc1ccccc1Oc1ccc(Cl)c(Cl)c1 (single isomer, unassigned; (-)) ?
(A) 10

* * *

# Test system: Rattus norvegicus
# ASSAY_METHOD_TEXT: Wake promoting activity in EEG/EMG Sprague-Dawley rat model assessed as slow wave sleep and rapid eye movement sleep time at 100 mg/kg, ip measured up to 3 hrs (reference value: 65 +/- 9 mins)
# Assay type: functional
# SETTINGS: route intraperitoneal
Task for the reader: assign each of the following molecules its reported Time.
Numbers only, in min.

Use the examples below as a reference point.
>  <MOLECULE>
NC(=O)C[S+]([O-])C(c1ccccc1)c1ccccc1 (stereo not given) [MODAFINIL]

>  <NUMERIC_VALUE>
117

$$$$
>  <MOLECULE>
NC(=O)C[S+]([O-])Cc1ccccc1Oc1ccc2ccccc2c1 (racemic)

>  <NUMERIC_VALUE>
131

$$$$

Would you mind listing Time for each of the following molecules?
1. NC(=O)C[S+]([O-])Cc1ccccc1Oc1cc(Cl)cc(Cl)c1 (racemic)
2. NC(=O)C[S+]([O-])Cc1ccccc1Oc1ccc(F)cc1 (racemic)
3. NC(=O)C[S+]([O-])Cc1ccc(Oc2ccc(Cl)c(Cl)c2)cc1 (stereo not given)
4. NC(=O)C[S+]([O-])Cc1ccccc1Oc1ccc(F)c(Cl)c1 (racemic)
5. NC(=O)C[S+]([O-])Cc1ccccc1Oc1ccc(Cl)cc1 (racemic)
6. NC(=O)C[S+]([O-])Cc1ccccc1Oc1cccc(Cl)c1Cl (racemic)
7. NC(=O)C[S+]([O-])Cc1ccccc1Oc1ccc(Cl)c(F)c1 (racemic)

(A)
117
123
88
160
165
120
176

(Q) Any idea what Time was measured for NC(=O)C[S+]([O-])Cc1ccccc1Oc1ccc(Cl)cc1Cl (racemic) ?
(A) 74
